Biological target: UniProtKB P50052
Experiment: Radioligand binding assay, displacement of 125I-[Sar1, Ile8]-Angiotensin II, hAT2R Cb23
Settings: displacement of 125I-[Sar1, Ile8]-Angiotensin II, human AT2R fused to Cb23, HEK-293 cell membrane preparations; read-out: Binding affinity on hAT2R_Cb23 IC50
pIC50: −log10 of the molar value.
ENDPOINT_LABEL: pIC50

// known answers, use as guide
{"MOLECULE": "Cc1noc(CN2CCN(c3cc(CC(C)C)ccc3-c3nn[nH]n3)CC2)n1", "EXPERIMENTAL_VALUE": 4.88}
{"MOLECULE": "CCOc1ccc(-c2nn[nH]n2)c(N2CCN(Cc3nc4ccccc4n3C)CC2)c1", "EXPERIMENTAL_VALUE": 5.63}
{"MOLECULE": "CCS(=O)(=O)NC(=O)c1ccc(OC)cc1N1CCN(Cc2nc3ccccc3s2)CC1", "EXPERIMENTAL_VALUE": 5.18}
{"MOLECULE": "CCc1cc(OC(C)C)cc(N2CCN(Cc3cccnn3)CC2)c1-c1nn[nH]n1", "EXPERIMENTAL_VALUE": 5.51}
{"MOLECULE": "CC(C)Cc1ccc(-c2nn[nH]n2)c(N2CCN(Cc3cc(C4CC4)on3)CC2)c1", "EXPERIMENTAL_VALUE": 5.15}
{"MOLECULE": "Cc1cnc(CN2C(C)CN(c3cc(CC(C)C)cc(F)c3-c3nn[nH]n3)CC2C)s1 (stereo not shown)", "EXPERIMENTAL_VALUE": 7.04}

I = Cc1nnc(CN2CCN(c3cc(CC(C)C)ccc3-c3nn[nH]n3)CC2)o1
II = Cc1cc(CC(C)C)cc(N2CCN(Cc3nc4ccccc4s3)CC2)c1-c1nn[nH]n1
III = CCc1ccc(-c2nn[nH]n2)c(N2CCN(Cc3nc4ccccc4s3)CC2)n1
IV = CC(C)Cc1cc(F)c(-c2nn[nH]n2)c(N2CCN(Cc3nc4ccccc4c(=O)[nH]3)CC2)c1
Which order do these items take when sorted by rising pIC50? List them. Ranked list of labels, please, in the requested order. I, III, IV, II

P = Cc1ccc(-c2nn[nH]n2)c(N2CCN(Cc3nc4ccccc4n3C)CC2)c1
Q = CC(C)Nc1ccc(-c2nn[nH]n2)c(N2CCN(Cc3nc4ccccc4s3)CC2)c1
R = c1ccc2sc(CN3CCN(c4cc(C5CC5)cnc4-c4nn[nH]n4)CC3)nc2c1
Give the ascending ranking of the items by reported pIC50. Write out the labels following the order that was asked for. P, R, Q

A = COc1ccc(-c2nn[nH]n2)c(N2CCN(Cc3nc4ccccc4n3C)CC2)c1
B = c1ccc2sc(CN3CCN(c4cc(N5CCOCC5)ccc4-c4nn[nH]n4)CC3)nc2c1
Could you please tell me which of these two has the higher pIC50: A or B ? # answer = label of selected item B
(B: 5.15, A: 4.71)

###

Assay: PAMPA (Parallel Artificial Membrane Permeability Assay), GIT model
Format: in vitro ADME
ENDPOINT_LABEL: Mass retention (%)

The cases that follow already have their Mass retention (%) on record.
{"MOLECULE": "CC(C)Oc1ccc(-c2nn[nH]n2)c(N2CCN(Cc3nc4ccccc4s3)CC2)c1 [Compound A-51]", "Mass retention (%)": 14}
{"MOLECULE": "CC(C)Cc1ccc(-c2nn[nH]n2)c(N2CCN(Cc3nc4ccccc4n3C)CC2)c1 [Compound A-20]", "Mass retention (%)": 28}

a = CC(C)Cc1cc(F)c(-c2nn[nH]n2)c(N2CCN(Cc3cccnn3)[C@@H](C)C2)c1 [Compound A-174]
b = CCCCOC(=O)NS(=O)(=O)c1ccc(C(F)(F)F)cc1N1CCN(Cc2nc3ccccc3n2C)CC1 [Compound A-09]
# argmax over Mass retention (%) for candidates a and b Kindly give the label for the entry you pick. b

###

Listed here are compounds together with their documented inhibition at 10 µM.
Biological target: human AT1R (Homo sapiens (Human))
Test: Counterscreen radioligand binding assay, displacement of 125I-[Sar1, Ile8]-Angiotensin II, hAT1R WT
Settings: 125I-[Sar1, Ile8]-Ang II, compound at 10 μM, semi-quantitative score, read-out: % Displaced radioligand at 10 μM

Some entries whose results are on file:
{"QUERY_SMILES": "CC(C)Cc1ccc(-c2nn[nH]n2)c(N2CCN(Cc3cccnn3)CC2)c1", "EXPERIMENTAL_VALUE": "< 30%"}
{"QUERY_SMILES": "CCNc1cc(-c2nn[nH]n2)c(N2CCN(Cc3nc4ccccc4s3)CC2)cc1CC(C)C", "EXPERIMENTAL_VALUE": "30 to 50%"}
{"QUERY_SMILES": "CC(C)Cc1cc(F)c(-c2nn[nH]n2)c(N2CC3CCC(C2)N3Cc2cccnn2)c1", "EXPERIMENTAL_VALUE": "< 30%"}

Which measured inhibition at 10 µM value corresponds to COc1cccnc1CN1CCN(c2cc(CC(C)C)cc(F)c2-c2nn[nH]n2)CC1 ? < 30%

Could you do the same for CCCCNC(=O)NS(=O)(=O)c1ccc(C)cc1N1CCN(Cc2nc3ccccc3n2C)CC1 , please? < 30%

Also need CCc1cc(-c2nn[nH]n2)c(N2CCN(Cc3nc4ccccc4s3)CC2)cc1OC(C)C , thanks. < 30%

And the next one, CC(C)Cc1ccc(-c2nn[nH]n2)c(N2CCN(Cc3nc4ccccc4s3)CC2)n1 ? < 30%

# iterate: CCOc1ccc(C(=O)NS(=O)(=O)CC)c(N2CCN(Cc3nc4ccccc4s3)CC2)c1 30 to 50%

###

Test: Metabolic stability in hepatocytes, mouse
Assay type: in vitro ADME
Conditions: hepatocytes (cryopreserved), read-out: Mouse Clint (μL/min/10^6 cells)
ENDPOINT_LABEL: hepatocyte CLint (µL/min/1e6 cells)

{"MOLECULE": "CCC1CN(c2cc(CC(C)C)cc(F)c2-c2nn[nH]n2)CCN1Cc1cccnn1 (centres unmarked)", "EXPERIMENTAL_VALUE": 0.8}

P = CC(C)Cc1cc(F)c(-c2nn[nH]n2)c(N2CC(C)N(Cc3cccnn3)CC2C)c1 (centres unmarked)
Q = CC(C)Cc1cc(F)c(-c2nn[nH]n2)c(N2CCN(Cc3cccnn3)C(C)C2)c1 (centres unmarked)
R = CCC1CN(Cc2cccnn2)CCN1c1cc(CC(C)C)cc(F)c1-c1nn[nH]n1 (centres unmarked)
Ordering: ascending hepatocyte CLint. Use the labels to give the requested order. R, P, Q
(R: 1 µL/min/1e6 cells, P: 2 µL/min/1e6 cells, Q: 4 µL/min/1e6 cells)

###

Biological target: human AT1R (Homo sapiens (Human), UniProt P30556)
Sequence (P30556 whole entry): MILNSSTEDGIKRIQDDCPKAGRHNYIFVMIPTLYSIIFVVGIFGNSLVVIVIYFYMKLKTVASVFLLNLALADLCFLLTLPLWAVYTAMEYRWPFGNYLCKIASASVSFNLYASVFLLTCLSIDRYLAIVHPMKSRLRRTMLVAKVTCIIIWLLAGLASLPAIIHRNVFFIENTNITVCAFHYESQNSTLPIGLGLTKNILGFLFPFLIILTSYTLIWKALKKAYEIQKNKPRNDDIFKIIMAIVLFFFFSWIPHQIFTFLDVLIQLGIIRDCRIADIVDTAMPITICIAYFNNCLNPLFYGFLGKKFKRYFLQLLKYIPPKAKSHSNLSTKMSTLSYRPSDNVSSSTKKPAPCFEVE
Assay: Counterscreen radioligand binding assay, displacement of 125I-[Sar1, Ile8]-Angiotensin II, hAT1R WT
Conditions: 125I-[Sar1, Ile8]-Ang II, compound at 10 μM, semi-quantitative score, read-out: % Displaced radioligand at 10 μM
ENDPOINT_LABEL: inhibition at 10 µM

Below, each entry is followed by its recorded inhibition at 10 µM result.
{"COMPOUND": "CC(C)Cc1cc(N2CCN(Cc3nc4ccccc4c(=O)[nH]3)CC2)c(-c2nn[nH]n2)cc1F [Compound A-153]", "EXPERIMENTAL_VALUE": "< 30%"}
{"COMPOUND": "CC(C)Cc1ccc(-c2nn[nH]n2)c(N2CCN(c3nc4ccccc4s3)CC2)c1 [Compound A-49]", "EXPERIMENTAL_VALUE": "30 to 50%"}
{"COMPOUND": "CC(C)Oc1cc(N2CCN(Cc3nc4ccccc4s3)CC2)c(-c2nn[nH]n2)cc1C1CC1 [Compound A-121]", "EXPERIMENTAL_VALUE": "30 to 50%"}

As a next step, examine the compound that follows.
Would you kindly share the measured inhibition at 10 µM for CC(C)Cc1cc(F)c(-c2nn[nH]n2)c(N2CC3CN(Cc4cccnn4)CC3C2)c1 (stereo not shown) [Compound A-233] ? < 30%

###

Target: human AT2R fused to Cb23 (Homo sapiens, UniProt P50052)
Sequence (P50052 whole entry, looked up, the tested form may be a part): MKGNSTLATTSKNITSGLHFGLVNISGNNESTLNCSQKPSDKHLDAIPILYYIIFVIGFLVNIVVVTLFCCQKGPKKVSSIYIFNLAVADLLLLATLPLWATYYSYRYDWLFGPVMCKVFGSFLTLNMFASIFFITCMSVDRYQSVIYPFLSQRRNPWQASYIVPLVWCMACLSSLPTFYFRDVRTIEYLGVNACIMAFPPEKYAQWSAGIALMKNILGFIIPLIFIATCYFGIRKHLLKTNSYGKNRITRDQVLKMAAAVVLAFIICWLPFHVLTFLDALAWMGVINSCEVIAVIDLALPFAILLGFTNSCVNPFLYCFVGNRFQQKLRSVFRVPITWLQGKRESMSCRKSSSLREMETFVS
Experiment: Radioligand binding assay, displacement of 125I-[Sar1, Ile8]-Angiotensin II, hAT2R Cb23
Conditions: displacement of 125I-[Sar1, Ile8]-Angiotensin II, human AT2R fused to Cb23, HEK-293 cell membrane preparations; read-out: Binding affinity on hAT2R_Cb23 IC50
pIC50: −log10 of the molar value.
ENDPOINT_LABEL: pIC50

{"MOLECULE": "Cc1scnc1CN1CCN(c2cc(CC(C)C)ccc2-c2nn[nH]n2)CC1 [Compound A-111]", "pIC50": 5.27}

a = CC(C)=Cc1ccc(-c2nn[nH]n2)c(N2CCN(Cc3nc4ccccc4c(=O)[nH]3)CC2)c1 [Compound A-30]
b = c1ccc2sc(CN3CCN(c4cc(C5CC5)ccc4-c4nn[nH]n4)CC3)nc2c1 [Compound A-47]
c = Cc1ccc(CN2CCN(c3cc(CC(C)C)ccc3-c3nn[nH]n3)CC2)nn1 [Compound A-113]
List these items ordered by pIC50, big to small. Your reply should list the labels following the order given in the request. b, c, a
